# System: carrageenan-induced mouse paw edema
# protocol.details: Carrageenan-induced mouse paw edema
# Type: in vivo, C57BL/6 mice
# experimental.setup: ip, 3.5 h, i.p. 0.30 mmol/kg, female C57BL/6, 3.5 h after carrageenan, read-out: % Edema (decrease of carrageenan-induced paw edema vs control)
quantity.name: inhibition in vivo at 300 µmol/kg (%)

[
  {
    "compound": "CC(C)Cc1ccc(C(C)C(=O)N2CC(c3ccc(-c4ccccc4)cc3)Sc3ccccc32)cc1 (centres unmarked)",
    "inequality.sign": "=",
    "recorded.result": 39
  },
  {
    "compound": "O=C(/C=C/c1ccccc1)N1CCSC(c2ccc(-c3ccccc3)cc2)C1 (centres unmarked)",
    "inequality.sign": "=",
    "recorded.result": 46
  },
  {
    "compound": "CC(C)(C)c1cc(C(=O)N2CCSC(c3ccc(-c4ccccc4)cc3)C2)cc(C(C)(C)C)c1O (centres unmarked)",
    "inequality.sign": "=",
    "recorded.result": 35
  },
  {
    "compound": "CC(C)(C)c1cc(/C=C/C(=O)N2CC(c3ccc(-c4ccccc4)cc3)Sc3ccccc32)cc(C(C)(C)C)c1O (centres unmarked)",
    "inequality.sign": "=",
    "recorded.result": 45
  },
  {
    "compound": "COc1cc(C(=O)N2CC(c3ccc(-c4ccccc4)cc3)Sc3ccccc32)cc(OC)c1OC (centres unmarked)",
    "inequality.sign": "=",
    "recorded.result": 38
  },
  {
    "compound": "CC(C)(C)c1cc(/C=C/C(=O)N2CCSC(c3ccc(-c4ccccc4)cc3)C2)cc(C(C)(C)C)c1O (centres unmarked)",
    "inequality.sign": "=",
    "recorded.result": 33
  },
  {
    "compound": "Cc1c(C)c2c(c(C)c1O)CCC(C)(C(=O)N1CCSC(c3ccc(-c4ccccc4)cc3)C1)O2 (centres unmarked)",
    "inequality.sign": "=",
    "recorded.result": 43
  },
  {
    "compound": "O=C(c1cc(O)c(O)c(O)c1)N1CCSC(c2ccc(-c3ccccc3)cc2)C1 (centres unmarked)",
    "inequality.sign": "≤",
    "recorded.result": 60
  },
  {
    "compound": "O=C(c1cc(O)c(O)c(O)c1)N1CC(c2ccc(-c3ccccc3)cc2)Sc2ccccc21 (centres unmarked)",
    "inequality.sign": "≤",
    "recorded.result": 60
  },
  {
    "compound": "CC(C)(C)c1cc(C(=O)N2CC(c3ccc(-c4ccccc4)cc3)Sc3ccccc32)cc(C(C)(C)C)c1O (centres unmarked)",
    "inequality.sign": "=",
    "recorded.result": 31
  },
  {
    "compound": "CC(C)Cc1ccc(C(C)C(=O)N2CCSC(c3ccc(-c4ccccc4)cc3)C2)cc1 (centres unmarked)",
    "inequality.sign": "=",
    "recorded.result": 27
  },
  {
    "compound": "c1ccc(-c2ccc(C3CNc4ccccc4S3)cc2)cc1 (centres unmarked)",
    "inequality.sign": "=",
    "recorded.result": 40
  },
  {
    "compound": "O=C(c1cccnc1)N1CCSC(c2ccc(-c3ccccc3)cc2)C1 (centres unmarked)",
    "inequality.sign": "=",
    "recorded.result": 34
  },
  {
    "compound": "COc1cc(C(=O)N2CCSC(c3ccc(-c4ccccc4)cc3)C2)cc(OC)c1OC (centres unmarked)",
    "inequality.sign": "=",
    "recorded.result": 44
  },
  {
    "compound": "COc1cc(/C=C/C(=O)N2CCSC(c3ccc(-c4ccccc4)cc3)C2)ccc1O (centres unmarked)",
    "inequality.sign": "≤",
    "recorded.result": 60
  },
  {
    "compound": "COc1ccc(/C=C/C(=O)N2CCSC(c3ccc(-c4ccccc4)cc3)C2)cc1OC (centres unmarked)",
    "inequality.sign": "≤",
    "recorded.result": 60
  },
  {
    "compound": "COc1ccc(/C=C/C(=O)N2CC(c3ccc(-c4ccccc4)cc3)Sc3ccccc32)cc1OC (centres unmarked)",
    "inequality.sign": "=",
    "recorded.result": 43
  }
]
